Cited source for all entries: ChEMBL document CHEMBL3507680

# run-description: Human HepG2 cell viability assay in 384 well format
# Assay type: toxicity, cell-based
# Set-up: dose 125 nL, time 70.5 hour; concentration not given beside the values
# condition-label: HepG2 cells, read-out: Inhibition
observable: cytotoxicity at 70.5 h (%)
Give your result in % as a bare value.

Q: Specify cytotoxicity at 70.5 h for N[C@H]1CN(C(=O)c2ccccc2Oc2ccccc2)C[C@@H]1C1CC1 and stop.
A: -9.43

Q: Give me measured cytotoxicity at 70.5 h, please, for this molecule: CC(CNC(=O)NCc1ccsc1)CC1(C)OCCO1 (configuration not stated)
A: -8.79

Q: Tell me its cytotoxicity at 70.5 h given Cc1cn2nc(Sc3nnc(C(C)C)n3C)sc2n1 as the entry.
A: -10.9

Q: Identify measured cytotoxicity at 70.5 h corresponding to CNC(=O)C1(N2CCC[C@H]2C(=O)NC2CCOCC2)CCOCC1
A: -6.78

Q: Using the record for COCc1ncc(CN(Cc2ccco2)C(C)C(C)C)cn1 (configuration not stated) , state its measured cytotoxicity at 70.5 h.
A: -15.5

Q: For the molecule CN(Cc1cncnc1)[C@H]1CN(Cc2ccco2)[C@@H]2CCCO[C@@H]21 , give its measured cytotoxicity at 70.5 h value.
A: -9.91

Q: // fetch cytotoxicity at 70.5 h given entry CCc1nc(C2CCCN(C(=O)c3cccc(Cl)c3)C2)no1 (configuration not stated)
A: -1.41

Q: Specify cytotoxicity at 70.5 h for Cc1cc(Br)cnc1N(C)CC1CCOC1 (configuration not stated) and stop.
A: -3.38

Q: Annotate the molecule c1ccc(COCCN2CCc3[nH]cnc3C2c2ccoc2)cc1 (configuration not stated) with its measured cytotoxicity at 70.5 h.
A: 26

Q: Read off the recorded cytotoxicity at 70.5 h for CN1CC2(CCN(c3nc(N)nc4c3CCNC4)CC2)OC1=O
A: -8.95

Q: Look up and report measured cytotoxicity at 70.5 h for this entry: CS(=O)(=O)N1CCCC12CCN(Cc1nccs1)C2 (configuration not stated)
A: -1.64

Q: # return recorded cytotoxicity at 70.5 h for input Cc1ccnc(C2CCN(C(=O)c3cnn(C)c3)C2)n1 (configuration not stated)
A: 12.7

###

# run-description: Human HepG2 cell viability assay in 384 well format
# Assay type: toxicity, cell-based
# Parameters: dose 125 nL, time 70.5 hour; concentration not given beside the values
# condition-label: HepG2 cells, read-out: Inhibition
observable: cytotoxicity at 70.5 h (%)
Just the number please, in %, no unit attached.

Q: Using known records, supply cytotoxicity at 70.5 h for COCCN1CCC(c2nc3ccc(NC(C)C)cn3n2)CC1
A: -17.4

Q: Recall and state the measured cytotoxicity at 70.5 h for O=C(NCc1ccccn1)[C@]12COC[C@H]1CN(Cc1ccsc1)C2 .
A: -0.962

Q: State, in one line, measured cytotoxicity at 70.5 h of CC1=Nc2c(c(=O)[nH]n2C2CCCC2)C(c2ccc(O)cc2)S1 (centres undefined)
A: -22.9

Q: Given CN(c1ncnc2sccc12)C1CCCN(c2cccnn2)C1 (centres undefined) , respond with its cytotoxicity at 70.5 h.
A: -13.9

Q: Name the recorded cytotoxicity at 70.5 h of the compound listed here: O=C1CC(c2ccccc2)c2snc(C(=O)O)c2N1 (centres undefined)
A: 24.7

Q: Please give the documented cytotoxicity at 70.5 h of O=S(=O)(NC[C@H]1C[C@@H]2CCN1C[C@@H]2CN1CCCC1)c1ccc(Cl)cc1
A: 17

Q: Report measured cytotoxicity at 70.5 h; entry is COCCN1CCC2(CCN(c3ncccn3)CC2)C1=O
A: 16.9

Q: Determine from records and report cytotoxicity at 70.5 h for Cc1c(NC(=O)CN2CCC(Oc3cnccn3)CC2)cnn1C
A: -3.61

Q: Could you please provide reported cytotoxicity at 70.5 h for COCCN1CCC2(CC1)CN(C(=O)N(C)C)c1ccc(C)cc12 ? Thanks!
A: 3.45

Q: Tell us which cytotoxicity at 70.5 h value is on record for CC(NC(=O)NCCc1cnn(C)c1)c1ccc(Cl)s1 (centres undefined)
A: -15

Q: Check the records and state cytotoxicity at 70.5 h for Cc1cc2c(N3CCCC(OCc4cccnc4)C3)ncnc2s1 (centres undefined)
A: -9.75

Q: Entry O=C(CC1COCCN1)NCCc1nc(Cc2ccccc2)no1 (centres undefined) needs its cytotoxicity at 70.5 h filled in; supply it.
A: -15.5

Q: Give a short answer stating reported cytotoxicity at 70.5 h for O=C(NCCNc1cnccn1)N1CCCC1 .
A: 5.69

Q: Item COCCC(=O)N1CCC2(CN(Cc3cccc(F)c3)C2)C1 : provide cytotoxicity at 70.5 h
A: -7.85

Q: Let me know recorded cytotoxicity at 70.5 h for Cc1occc1C(=O)N1CCn2c(COCC3CC3)cnc2C1C (centres undefined) , thanks.
A: -9.85

Q: Look up and state reported cytotoxicity at 70.5 h for Cc1ccc(N(C)C2CCN(C(=O)CCc3ccco3)CC2)nn1
A: -11.8

Q: State its cytotoxicity at 70.5 h for this compound: Cn1nccc1CCC(=O)N1CCCC(Cc2cccnc2)C1 (centres undefined)
A: -5.31

Q: // Input: c1csc(CN2CCCN(c3ccc(Cn4ccnc4)cn3)CC2)c1 . Output its cytotoxicity at 70.5 h only.
A: -5.7

Q: Fill in cytotoxicity at 70.5 h for record Cc1cc(C)n(CC2CN(CC(=O)Nc3nncs3)CCO2)n1 (centres undefined)
A: 0.137

Q: Fill in reported cytotoxicity at 70.5 h for this entry: CCN1C[C@H]2[C@@H](C1)N(S(=O)(=O)c1ccccc1)CC[C@H]2OC
A: -2.93

Q: Read the entry O=C(CN1CCC(c2ccccc2)C1)NCC(F)(F)F (centres undefined) and write its reported cytotoxicity at 70.5 h.
A: 1.22

Q: For the compound CCN(CC1=CCN(C)CC1)C(=O)CCOC , report cytotoxicity at 70.5 h.
A: -6.72

Q: For the compound COCCCN1CCCC12CCN(c1ncccn1)CC2 , give its measured cytotoxicity at 70.5 h value.
A: -5.24

Q: Identify measured cytotoxicity at 70.5 h corresponding to c1cnnc(N2CCCC2CNc2nc3ccccc3o2)c1 (centres undefined)
A: -2.85

###

# run-description: Human HepG2 cell viability assay in 384 well format
# Format: toxicity, cell-based
# Set-up: dose 125 nL, time 70.5 hour; concentration not given beside the values
# condition-label: HepG2 cells, read-out: Inhibition
observable: cytotoxicity at 70.5 h (%)
Kindly answer with a numeric value in %, unit omitted.

Q: Supply reported cytotoxicity at 70.5 h belonging to this compound: Cc1n[nH]cc1CNCC(O)c1ccc(F)c(F)c1 (stereo not drawn)
A: -7.55

Q: Give recorded cytotoxicity at 70.5 h. Cn1cc(CN2CC[C@@H]3[C@H]2CCC(=O)N3c2ccccc2)cn1
A: -8.65

Q: Kindly indicate its recorded cytotoxicity at 70.5 h. Item: CN(C)S(=O)(=O)N1CC[C@@H]2CN(Cc3cnn(C)c3)C[C@@H]2C1
A: 32.1

Q: Consider the compound O=C(C1CCN(c2nc3nc[nH]c(=O)c3s2)CC1)N1CCCCC1 . State its measured cytotoxicity at 70.5 h.
A: -15.6

Q: Indicate the recorded cytotoxicity at 70.5 h value for this compound: COc1cccc(CC2(C(=O)O)CCN(c3nccs3)CC2)c1
A: -7.32

Q: Indicate its recorded cytotoxicity at 70.5 h; the compound in question is CN(C(=O)CN(Cc1cccc(O)c1)C1CCC(O)CC1)C1CC1 (stereo not drawn)
A: -6.65

Q: Please supply the value of reported cytotoxicity at 70.5 h for the item CC(C)N1CCCn2nc(C(=O)NCCc3ccccn3)cc2C1
A: -9.32

Q: Specify measured cytotoxicity at 70.5 h for COc1ccccc1C(=O)Nc1ccc(OC2CCN(C)CC2)cc1 .
A: -6.64

Q: Read off the recorded cytotoxicity at 70.5 h for COc1ccc(CNCC2CNc3cc(C)nn3C2)cn1 (stereo not drawn)
A: -2.49

Q: Specify measured cytotoxicity at 70.5 h for O=c1cc(CN(Cc2ccco2)C2CC2)nc2ccc(Br)cn12 .
A: -3.54

Q: Kindly indicate its recorded cytotoxicity at 70.5 h. Item: CCCn1ccnc1CN1C[C@@H](CN2CCCN(C)CC2)[C@@H](CO)C1
A: -9.5

Q: Give me measured cytotoxicity at 70.5 h, please, for this compound: O=C(c1ccoc1)N1CCCCC1c1nc[nH]n1 (stereo not drawn)
A: -1.78

Q: Specify cytotoxicity at 70.5 h for O=C(Cc1cc(-c2ccc3c(c2)OCO3)on1)NC1CCCC1 and stop.
A: -8.33

Q: Look up and state reported cytotoxicity at 70.5 h for Cc1nc(C2CCCN(C(=O)c3cc(Cl)c[nH]3)C2)sc1C (stereo not drawn)
A: -2.27

Q: Tell us which cytotoxicity at 70.5 h value is on record for CCCN1CCC(Cc2noc(-c3ncccc3C)n2)CC1
A: -5.81

Q: Provide one value: measured cytotoxicity at 70.5 h of CC(C)Cc1cc(C(=O)N2CCCC(n3cncn3)C2)[nH]n1 (stereo not drawn)
A: -7.4

Q: Supply measured cytotoxicity at 70.5 h of CN(Cc1cc[nH]n1)C(=O)C1CC(=O)N(Cc2ccncc2)C1 (stereo not drawn) in your reply.
A: -0.62

Q: Provide one value: measured cytotoxicity at 70.5 h of CC1COCCN1Cc1noc(C(C)(C)C)n1 (stereo not drawn)
A: 19.8

Q: Give cytotoxicity at 70.5 h for O=C(Cc1csc(-c2ccccc2Cl)n1)NCc1cccc(C(=O)O)c1
A: -18.1

Q: Specify measured cytotoxicity at 70.5 h for Cc1cc(NC(C)c2csc(C)n2)n2nc(C)c(C)c2n1 (stereo not drawn) .
A: 5.97

Q: Give the value of cytotoxicity at 70.5 h reported for the following: Cn1cc(CN2C[C@@H]3CCCO[C@@H]3[C@H](N3CCCC3=O)C2)cn1
A: -4.04

Q: Name the recorded cytotoxicity at 70.5 h of the compound listed here: Cc1ccc(Cl)c(CN2CCC(c3nccn3C(C)C)CC2)c1F
A: -1.48

Q: Answer with the recorded cytotoxicity at 70.5 h of CCOC(=O)N1[C@@H](c2ccco2)[C@@H](C(=O)NC)C[C@]12CCCCNC2=O only.
A: 15.2

Q: Complete the entry with cytotoxicity at 70.5 h for Cc1noc2ncc(C(=O)N3CCCC3c3cnn(C)c3)cc12 (stereo not drawn)
A: -6.59

Q: Indicate the recorded cytotoxicity at 70.5 h value for this compound: O=C(CCSc1ccccc1)NCCn1nc2ccccn2c1=O
A: -8.89

Q: Retrieve cytotoxicity at 70.5 h measured for CC(C)(C)CNC[C@H]1Cn2c(-c3ccccc3)cnc2CO1 and print it.
A: -3.54

Q: Report cytotoxicity at 70.5 h for Cc1noc(C2CCCN(CC(=O)N3CCNC(=O)C3)C2)n1 (stereo not drawn)
A: -4.79

Q: Please give the documented cytotoxicity at 70.5 h of CC1=C[C@@H](CC#N)[C@H](C(C)C)C[C@H]1CC(=O)N1CCN(C)CC1
A: 13.1

Q: Give cytotoxicity at 70.5 h for the following compound: COc1c(CNCc2nnc3n2CCCCC3)c(C)nn1C
A: -6.68

Q: Identify cytotoxicity at 70.5 h associated with the compound NC(=O)C1CCN(c2cncc(-n3cccn3)n2)CC1
A: 6.36

Q: For the compound CCc1n[nH]c(C(=O)N2CCC3(CCCN(CCOC)C3=O)C2)c1C (stereo not drawn) , give its reported cytotoxicity at 70.5 h.
A: -9.48

Q: Specify reported cytotoxicity at 70.5 h for the compound shown: CNc1ncc(CN2CCC(CCc3ccccc3)CC2)cn1
A: -1.31

Q: Complete the entry with cytotoxicity at 70.5 h for COc1c(C2CCCN2CC(=O)Nc2ccncc2)c(C)nn1C (stereo not drawn)
A: 6.03

Q: Provide one value: measured cytotoxicity at 70.5 h of O=C(Nc1ccc(Cl)cn1)C1CCCN(CCc2ccccn2)C1 (stereo not drawn)
A: 14.5

Q: Look up cytotoxicity at 70.5 h of NC(=O)Cn1cc(NC(=O)NCCN2CCc3ccccc3C2)cn1 and report it.
A: -5.44

Q: Let me know recorded cytotoxicity at 70.5 h for COCCNC(=O)[C@@]12CCO[C@@H]1CCN(Cc1scnc1C)C2 , thanks.
A: -2.1

Q: Tell me cytotoxicity at 70.5 h reported for CCOc1ccc(C(=O)NC2CC2)cc1C
A: -7.46

Q: Return cytotoxicity at 70.5 h (reported value) for this compound: CN1CC(c2ccccc2)CC12CCN(C(=O)c1cccnc1)CC2 (stereo not drawn)
A: -9.06

Q: State its cytotoxicity at 70.5 h: CC(=O)N1CCCN(C(=O)NCCNc2cnccn2)CC1
A: -2.47

Q: Entry CCCOCCN1CCN(c2ncnc3[nH]ccc23)CC1 needs its cytotoxicity at 70.5 h filled in; supply it.
A: 1.69

Q: Please report the measured cytotoxicity at 70.5 h for O=C(c1ccncc1)N(CCO)Cc1cc(Br)ccc1F
A: -10.4

Q: // Input: Cc1cccc(S(=O)(=O)NCC(C)N2CCN(C)CC2)c1Cl (stereo not drawn) . Output its cytotoxicity at 70.5 h only.
A: -1.95

Q: Tell me measured cytotoxicity at 70.5 h for Cc1ccc(F)cc1NC(=O)CNc1cccc2c1CCCC2 please.
A: -7.64

Q: Provide cytotoxicity at 70.5 h value for the following compound: Cc1cccnc1NC(=O)CSc1ccc2c(c1)OCCO2
A: -9.85

Q: Answer with the recorded cytotoxicity at 70.5 h for the compound listed here: Cc1nnc2sc(-c3cc(C(C)C)n[nH]3)nn12
A: -4.97

Q: Please look at this compound and report its cytotoxicity at 70.5 h: CCN1CCN(CCNC(=O)c2ccn(-c3ccc(F)cc3)n2)CC1
A: -3.79

Q: Please give the documented cytotoxicity at 70.5 h of O=C1CCCN1CCN1CCC(c2ccn[nH]2)CC1
A: -7.63

Q: Return cytotoxicity at 70.5 h (reported value) for this compound: COCCCNC(=O)C1CN(C(=O)c2cnccn2)C1
A: -15.7
